molecular target: triple loop swap zfα5β1-1 integrin (KEDTPH to EKEPL, RGRK to SWAA and RKEIRF to ASSIY) (zebrafish); assay: ELISA
pKi: −log10 of the molar value. Bridge positions count the residues as written; N and C are the ends. Ends that are not written are not given here.
metric: pKi

{"columns": ["binder", "measured_value"],
 "data": [
  ["GACRRETAWACGA (disulfide 3-11 (inferred)) [cyclic peptide …]", 7.12]
]}
